# ASSAYED_TARGET: UBE2B
# ASSAY_REMARKS: reporter assay of Huesken 2005
# EXPERIMENTAL_CONDITIONS: siRNA
Oligonucleotides are written 5' to 3', each unit as a sugar letter and its base; * is a phosphorothioate linkage, no mark a phosphodiester; rarer units and linkages stand in square brackets, end groups in braces. Plain capitals give the bases only. d = 2'-deoxy (DNA); r = 2'-OH (RNA)
Label 1 when normalised inhibition (eCFP-eYFP dual reporter) >= 60%; otherwise 0.

Does the substance sense rArUrGrCrArGrUrUrArUrArUrUrUrGrGrArCrCdTdT / antisense rGrGrUrCrCrArArArUrArUrArArCrUrGrCrArUdTdC have recorded normalised inhibition (eCFP-eYFP dual reporter) that is 60% or more?
0

Does the substance sense rUrArGrArUrArUrCrCrUrUrCrArGrArArUrCrGdTdT / antisense rCrGrArUrUrCrUrGrArArGrGrArUrArUrCrUrAdAdA have recorded normalised inhibition (eCFP-eYFP dual reporter) that is 60% or more?
0

Does the substance sense rUrArGrUrArArUrArGrArArUrUrUrUrCrUrGrAdTdT / antisense rUrCrArGrArArArArUrUrCrUrArUrUrArCrUrAdGdT have recorded normalised inhibition (eCFP-eYFP dual reporter) that is 60% or more?
1

Does the substance sense rGrUrArCrUrUrUrUrArArArCrUrArGrUrArArUdTdT / antisense rArUrUrArCrUrArGrUrUrUrArArArArGrUrArCdCdA have recorded normalised inhibition (eCFP-eYFP dual reporter) that is 60% or more?
1

Does the substance sense rArUrCrCrArArArUrGrUrGrUrArUrGrCrUrGrAdTdT / antisense rUrCrArGrCrArUrArCrArCrArUrUrUrGrGrArUdGdA have recorded normalised inhibition (eCFP-eYFP dual reporter) that is 60% or more?
1

Does the substance sense rArArUrGrUrUrUrCrArUrCrCrArArArUrGrUrGdTdT / antisense rCrArCrArUrUrUrGrGrArUrGrArArArCrArUrUdTdT have recorded normalised inhibition (eCFP-eYFP dual reporter) that is 60% or more?
1

Does the substance sense rArGrUrCrCrArArCrArUrArUrGrArUrGrUrArUdTdT / antisense rArUrArCrArUrCrArUrArUrGrUrUrGrGrArCrUdCdC have recorded normalised inhibition (eCFP-eYFP dual reporter) that is 60% or more?
1

Does the substance sense rUrUrUrUrCrUrGrArArGrArArUrArUrCrCrArAdTdT / antisense rUrUrGrGrArUrArUrUrCrUrUrCrArGrArArArAdTdT have recorded normalised inhibition (eCFP-eYFP dual reporter) that is 60% or more?
1

Does the substance sense rUrCrCrUrUrCrArGrArArUrCrGrArUrGrGrArGdTdT / antisense rCrUrCrCrArUrCrGrArUrUrCrUrGrArArGrGrAdTdA have recorded normalised inhibition (eCFP-eYFP dual reporter) that is 60% or more?
0

Does the substance sense rGrArArGrGrGrArCrArCrCrUrUrUrUrGrArArGdTdT / antisense rCrUrUrCrArArArArGrGrUrGrUrCrCrCrUrUrCdTdG have recorded normalised inhibition (eCFP-eYFP dual reporter) that is 60% or more?
1

Does the substance sense rArUrUrUrUrCrUrGrArArGrArArUrArUrCrCrAdTdT / antisense rUrGrGrArUrArUrUrCrUrUrCrArGrArArArArUdTdC have recorded normalised inhibition (eCFP-eYFP dual reporter) that is 60% or more?
1
